Molecular target: GST-ZZS01 fusion protein (UniProt P08515 1-218 = GST)
Sequence (P08515 1-218, tags or fused parts left off): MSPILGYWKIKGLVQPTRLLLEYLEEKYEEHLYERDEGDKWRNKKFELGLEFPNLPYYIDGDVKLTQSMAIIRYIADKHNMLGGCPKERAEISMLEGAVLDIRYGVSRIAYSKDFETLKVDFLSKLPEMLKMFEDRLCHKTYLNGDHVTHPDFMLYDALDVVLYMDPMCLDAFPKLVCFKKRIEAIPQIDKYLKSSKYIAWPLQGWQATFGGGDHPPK
Assay: Biacore SPR as in Example 3.3
pKd: −log10 of the molar value.
VALUE_KIND: pKd

>>> value("h17 (antibody, V domains shown) VH: QVQLVESGGGLVEPGGSLRLSCAASGFTFSDHYMSWIRQAPGRGLEWVSYISNSGGYTNYADSVKGRFTISRDNAKNSLYLQMNSLRAEDTAVYYCAREGSPGGQGTLVTVSS VL: DVVMTQSPLSLPVTLGQPASMSCRSSQSLVDSDGNTYLSWFQQRPGQSPRRLIYKVSDRDSGVPDRFSGGGSGTDFTLKIRRVEAEDVGIYYCMQGTRWPFTFGPGTKVDIKR")
8.50
>>> value("h1 (antibody, V domains shown) VH: EVQLVESGGGLVKPGGSLRLSCAASGFTFSSYSMSWVRQAPGKGLEWVSSISSRSNYIYYADSVKGRFTISRDNAKNSLYLQVNSLRAEDTAVYYCARGSGSYYVFDYWGQGTLVTVSS VL: EIVMTQSPATLSVSPGDRATLSCRASQSISSDLAWYQQKPGQAPRLLIYAASTRATGFPARFSGSGSGTEFTLTISSLQPEDFAVYYCQQYNNWPMYAFGQGTKLEIKR")
9.54
